- methodSummary: S16 Schwann cell PMP22 intronic element beta-lactamase assay (AID 624044); also: nearly all actives have a fitted effect of over 15% in size
- testContext: S16 rat Schwann cells, PMP22 element beta-lactamase FRET, 24 h
Inconclusive results are not listed. The source made the active and inactive calls. Calls follow the shape of the full dose curve.
Please state which outcome applies, choosing from True = active, False = inactive

Worked set:
>>> group("C[C@@H]1O[C@H](O[C@@H]2C=C3CC[C@H]4[C@@H](CC[C@]5(C)[C@@H](c6ccc(=O)oc6)CC[C@]45O)[C@@]3(C)CC2)[C@@H](O)[C@H](O)[C@@H]1O")
"False"
>>> group("C[N+]1(C)[C@@H]2CC[C@H]1CC(OC(=O)[C@@H](CO)c1ccccc1)C2 (stereo partly drawn)")
"False"
>>> group("CC(C)n1c(/C=C/[C@H](O)C[C@H](O)CC(=O)O)c(-c2ccc(F)cc2)c2ccccc21")
"True"
>>> group("C[C@@]12C(=O)OC(=O)[C@]1(C)[C@H]1CC[C@@H]2O1")
"True"

Any idea what this test logged for CC1=C2[C@@H]3OC(=O)[C@@H](C)[C@@H]3CC[C@]2(C)C=CC1=O ?
False

Any idea what this test logged for C[C@]12CC[C@H]3[C@@H](CCC4=CC(=O)CC[C@@]43C)[C@@H]1CC[C@@H]2O ?
False

Any idea what this test logged for O=[As]O[As]=O (stereo not drawn) ?
False

Any idea what this test logged for C[C@@]12CC[C@H]3[C@@H](CC[C@@H]4C[C@H]5S[C@H]5C[C@]43C)[C@H]1CC[C@H]2O ?
False

Any idea what this test logged for CC(C)CC(CN)CC(=O)O (stereo not drawn) ?
False

Any idea what this test logged for CN(C)[C@@H]1C(=O)C(C(N)=O)=C(O)[C@]2(O)C(=O)C3=C(O)c4c(O)ccc(Cl)c4[C@](C)(O)[C@H]3C[C@@H]12 ?
False

Any idea what this test logged for CCN[C@]1(c2cccs2)CCCCC1=O ?
False

Any idea what this test logged for C[C@H]1CN(C2CCC(C#N)(c3ccc(F)cc3)CC2)CC[C@@]1(C(=O)O)c1ccccc1 (stereo partly drawn) ?
False

Any idea what this test logged for C=CC1CN2CCC1CC2C(OC(=O)OCC)c1ccnc2ccc(OC)cc12 (stereo not drawn) ?
False

====

Below, each entry is listed with its recorded Potency.
- targetUnderTest: Glucocorticoid receptor (Homo sapiens) (UniProt P04150)
- Sequence (P04150 whole entry, looked up): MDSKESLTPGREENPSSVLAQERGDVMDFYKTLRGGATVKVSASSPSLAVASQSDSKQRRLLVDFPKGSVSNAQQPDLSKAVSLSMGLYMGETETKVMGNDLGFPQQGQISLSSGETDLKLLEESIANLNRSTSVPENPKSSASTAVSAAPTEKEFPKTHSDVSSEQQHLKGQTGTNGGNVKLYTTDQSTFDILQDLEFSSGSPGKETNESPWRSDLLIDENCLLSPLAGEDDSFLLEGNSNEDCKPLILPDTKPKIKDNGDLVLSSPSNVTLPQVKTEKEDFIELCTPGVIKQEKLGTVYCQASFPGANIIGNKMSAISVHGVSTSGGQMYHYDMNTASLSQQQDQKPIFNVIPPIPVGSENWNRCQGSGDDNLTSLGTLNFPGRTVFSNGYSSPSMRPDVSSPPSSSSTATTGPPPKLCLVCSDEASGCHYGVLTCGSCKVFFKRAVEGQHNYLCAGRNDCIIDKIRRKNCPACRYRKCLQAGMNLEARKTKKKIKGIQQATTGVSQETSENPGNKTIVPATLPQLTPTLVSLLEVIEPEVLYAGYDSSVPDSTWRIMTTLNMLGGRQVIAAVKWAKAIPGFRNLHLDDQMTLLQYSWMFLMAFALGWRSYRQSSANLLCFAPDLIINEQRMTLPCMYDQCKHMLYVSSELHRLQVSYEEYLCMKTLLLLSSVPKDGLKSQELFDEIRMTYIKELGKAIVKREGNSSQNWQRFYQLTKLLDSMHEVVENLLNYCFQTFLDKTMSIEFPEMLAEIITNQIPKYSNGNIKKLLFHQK
- methodSummary: GR-GFP Redistribution (AID 450); also: potency is read from the fitted curve at half-maximal effect
- testContext: U2OS GR-GFP nuclear translocation, laser cytometry, 2 h
The source made the active and inactive calls.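 Rule for the calls: active = compounds whose dose series gives a full or clear partial fitted curve of increased nuclear translocation; inconclusive = weak partial curve or effect only at the top dose; inactive = no dose-dependent translocation response.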

Here is how some molecules turned out for Potency.
>>> result("CCN1C[C@@]2(COC)CC[C@H](O)[C@@]34[C@@H]2C[C@@H]([C@@H]13)[C@]1(O)C[C@@H](OC)C2C[C@H]4[C@H]1[C@H]2OC(C)=O")
"> 20.6 µM (inactive)"
>>> result("CCCCCCC(C)(C)c1ccc([C@@H]2C[C@H](O)CC[C@@H]2CCCO)c(O)c1")
"> 46 µM (inactive)"
>>> result("COc1cc(N)c(Cl)cc1C(=O)N[C@@H]1CN2CCC1CC2")
"> 46 µM (inactive)"

Retrieve Potency measured for CCN1C[C@]2(C)CC[C@H](O)[C@@]34[C@@H]5CC6[C@@H](OC)C[C@@](O)([C@@H]5[C@@H]6O)[C@H](C[C@@H]23)[C@H]14 and print it.
> 20.6 µM (inactive)

Retrieve Potency measured for C[N+]1(C)CCO[C@](O)(c2ccc(-c3ccc([C@]4(O)C[N+](C)(C)CCO4)cc3)cc2)C1 and print it.
> 20.6 µM (inactive)

Retrieve Potency measured for COc1cc2c(cc1O)C[C@H]1c3c(cc(OC)c(O)c3-2)CCN1C and print it.
> 46 µM (inactive)

Entry source: PubChem BioAssay (NCATS)
